Biological target: HIV-1 protease (wild-type, WT) (Human immunodeficiency virus type 1 group M subtype B)
Construct: purified HIV-1 protease (wild-type, WT)
Assay: Inhibition of purified wild-type HIV-1 protease (fluorogenic substrate cleavage), Ki and % inhibition
Assay type: biochemical
Details: Table II, unit nm [sic]; read-out: Ki
measured.property: pKi
Give bare numbers, as −log10 of the molar value.

[ask] Write down the reported pKi (system: HIV-1 protease (wild-type, WT) (Human immunodeficiency virus type 1 group M subtype B)) of O=C(N[C@@H](Cc1ccccc1)[C@H](O)[C@H](O)[C@H](Cc1ccccc1)NC(=O)c1ccc(O)c(O)c1)c1ccc(O)c(O)c1
[reply] 7.10

###

Biological target: HIV-1 protease (wild-type, WT) (Human immunodeficiency virus type 1 group M subtype B, UniProt P04585)
Construct: purified HIV-1 protease (wild-type, WT)
Experiment: Inhibition of purified wild-type HIV-1 protease (fluorogenic substrate cleavage), Ki and % inhibition
Type: biochemical
Conditions: Table II; read-out: Ki
Labels assigned by Ki range: LOW (below 20 nM), MEDIUM (20 nM to below 300 nM), HIGH (300 nM or more)

• O=C(N[C@@H](Cc1ccccc1)[C@@H](O)[C@H](O)[C@H](Cc1ccccc1)NC(=O)c1cccc(O)c1)c1cccc(O)c1 = MEDIUM
• O=C(N[C@@H](Cc1ccccc1)[C@H](O)[C@H](O)[C@H](Cc1ccccc1)NC(=O)c1cccc(O)c1)c1cccc(O)c1 = MEDIUM

[ask] Class? Entry: Cc1cc(O)cc(C(=O)N[C@@H](Cc2ccccc2)[C@H](O)[C@H](O)[C@H](Cc2ccccc2)NC(=O)c2cc(C)cc(O)c2)c1
[reply] HIGH

[ask] Which category fits this record: O=C(N[C@@H](Cc1ccccc1)[C@@H](O)[C@H](O)[C@H](Cc1ccccc1)NC(=O)c1ccc(O)cc1)c1ccc(O)cc1
[reply] HIGH

[ask] Bin this entry: O=C(N[C@@H](Cc1ccccc1)[C@@H](O)[C@H](O)[C@H](Cc1ccccc1)NC(=O)c1cccnc1)c1cccnc1
[reply] HIGH

[ask] # classify by Ki band: O=C(N[C@@H](Cc1ccccc1)C[C@H](O)[C@H](Cc1ccccc1)NC(=O)c1cccc(O)c1)c1cccc(O)c1
[reply] MEDIUM

[ask] State the band of O=C(N[C@@H](Cc1ccccc1)[C@H](O)[C@H](O)[C@H](Cc1ccccc1)NC(=O)c1cc(O)cc(O)c1)c1cc(O)cc(O)c1
[reply] HIGH

###

Biological target: R8Q mutant HIV-1 protease (Human immunodeficiency virus type 1 group M subtype B, UniProt P04585, R496Q)
Construct: R8Q and V82I mutant HIV-1 proteases
Assay: Inhibition of R8Q mutant HIV-1 protease (fluorogenic substrate cleavage)
Conditions: Table III
measured.property: Ki (nM)
Numbers only, in nM.

Recorded Ki, per entry:
- O=C(N[C@@H](Cc1ccccc1)[C@H](O)[C@H](O)[C@H](Cc1ccccc1)NC(=O)c1ccc(O)c(O)c1)c1ccc(O)c(O)c1: 40
- Nc1cccc(C(=O)N[C@@H](Cc2ccccc2)[C@H](O)[C@H](O)[C@H](Cc2ccccc2)NC(=O)c2cccc(N)c2)c1: 20

Batch of 3 molecules: report Ki for each.
1. Cc1ccc(O)cc1C(=O)N[C@@H](Cc1ccccc1)[C@H](O)[C@H](O)[C@H](Cc1ccccc1)NC(=O)c1cc(O)ccc1C
2. O=C(N[C@@H](Cc1ccccc1)[C@H](O)[C@H](O)[C@H](Cc1ccccc1)NC(=O)c1cccc(O)c1)c1cccc(O)c1
3. O=C(N[C@@H](Cc1ccccc1)C[C@H](O)[C@H](Cc1ccccc1)NC(=O)c1cccc(O)c1)c1cccc(O)c1

[reply]
[89, 36, 34]
